- Test system: PC-3 prostate
- assay method text: NCI tumour cell line growth inhibition, 48 h
readout: TGI

Could you tell me which TGI is on file for COC(=O)c1ccccc1C1CN=NC12Cc1c(C)ccc(C)c1C2=O (stereo unspecified) ? > 100 µM

What does the record list as TGI for "COc1ccc(/C=C\c2cc(OC)c(OC)c(OC)c2)c(NS(=O)(=O)c2ccc(C(C)(C)C)cc2)c1O" ? 17 µM

Query (compound): CC(C)=CCc1c2c(c(O)c3c(=O)c4c(oc13)-c1ccc(O)cc1OC4C=C(C)C)C=CC(C)(C)O2 (stereo unspecified) ; field requested: TGI 24.7 µM

What does the data say about its TGI? Entry: "O=C(OC[C@@H]1CO1)c1cccc2c(=O)c3ccccc3[nH]c12" > 21.8 µM

Fill in the blank: the reported TGI of "O=c1nc2[nH]c3c(-c4n[nH]c(=O)[nH]c4=O)cccc3c2n[nH]1" is ____. > 100 µM

What does the record list as TGI for "N#CCC1(n2cc(-c3ncnc4[nH]ccc34)cn2)CN(C2CCN(C(=O)c3ccnc(C(F)(F)F)c3F)CC2)C1" ? > 100 µM

Suppose we examine the compound "Cc1ccnc(Nc2ccc([N+](=O)[O-])c(NCCN3CCOCC3)n2)c1" ; what TGI value has been reported? 39.5 µM

What value of TGI has been reported for the following compound? "O=NN(CCCl)C(=O)NC1CCCCC1" 136 µM

# input compound: "CCN1CCN(c2nc(NNC(=O)c3ccccc3)nc(N3CCN(C(c4ccccc4)c4ccccc4)CC3)n2)CC1" ; wanted: its TGI 7.57 µM

What value of measured TGI is listed for "COc1ccc(/C=C/C(C)=N/OCC(=O)Nc2ccc(Cl)cc2)cc1" ? 13.1 µM

Name the recorded TGI for "CCc1cc2c(c3c1CCCC3=O)CC1(C2)Cc2cc(CC)c3c(c2C1)C(=O)CCC3" . > 100 µM

Tell me the measured TGI of "COc1cccc(CCCNC(=O)Cc2ccccc2CO)c1" , please. > 100 µM

Consider the compound "N#Cc1c(N)nc(Sc2ccccc2N)c(C#N)c1-c1ccccc1" and give its measured TGI. 33.3 µM

I have this compound here, CCCCCCCCCCCCC1N=C(N)N2CCCC2=C1C(=O)OC (stereo unspecified) , and I need its recorded TGI. 3.95 µM

What does the record list as TGI for CCOC(=O)C1C(c2ccc(OC)cc2)c2c([nH]n(-c3ccccc3)c2=O)CC1(C)O (stereo unspecified) ? > 100 µM

Which measured TGI value corresponds to "CN(C)c1ccc(N=C2C=CC(=C(C#N)C#N)c3ccccc32)cc1" ? 10.8 µM

If you can, please state the reported TGI value of "CNCc1ccc(-c2[nH]c3cc(F)cc4c3c2CCNC4=O)cc1" . > 100 µM

Any idea what its TGI is? The compound is "O=S(=O)(O)c1cc(O)c(N=Nc2ccc3ccccc3c2O)c2ccccc12" > 100 µM

// lookup TGI for "COc1ccc(/C=N/NC(=S)Nc2cc(C)ccc2OC)cc1" > 100 µM

What value of measured TGI is listed for CCOC(=O)c1csc(NC(=O)C(C)N2CCOCC2)n1 (stereo unspecified) ? > 100 µM

Recorded TGI of CC(=O)NN(c1ccccc1)C1CCN(c2ccccc2)N1C(C)=O (stereo unspecified) , please. > 10 µM

What does the record list as TGI for "O=C(Oc1ccc2c(c1)CN(Cc1ccccc1)CO2)c1ccccc1" ? 29.4 µM

Look up TGI: "CC1=C2[C@@H](CC1)[C@]1(C)O[C@@](C3CC3)(C[C@H]1OC(=O)CO)[C@H]2OC(=O)/C=C/c1ccccc1" 28.4 µM

Any idea what TGI was measured for CC(=O)N1c2cc(N=NN(C)C)ccc2NC(=O)CC1C (stereo unspecified) ? > 100 µM

Look up TGI for this compound: N#CC(NNC(=O)c1ccccc1O)c1c(O)ccc2ccccc12 (stereo unspecified) > 55.1 µM

Reported TGI, compound "OCCCCC#Cc1ccccc1C#Cc1ccc(C(F)(F)F)cc1" : ____ 35 µM

Form field: reported TGI of "Cn1ccnc1C(=O)/C=C/c1ccc(C(=O)Nc2c(F)c(F)c(F)c(F)c2F)cc1" 6.54 µM

// query TGI value for entry "Cc1ccc(S(=O)(=O)N2CCC(C(=O)O)(c3ccccc3)CC2)cc1" > 100 µM

GET /values?readout=TGI&item= Nc1ncc(C2[C@H](CNC(=O)c3cc(Br)c[nH]3)C(CNC(=O)c3cc(Br)c[nH]3)[C@@H]2c2cnc(N)[nH]2)[nH]1 (stereo partly specified) > 50 µM

Please give the measured TGI for this compound: COc1ccc(/C(CC2OC(=O)c3ccccc32)=N\NC(N)=O)cc1 (stereo unspecified) > 100 µM

Param item = "O=C1c2ccccc2C(=O)c2sc(Nc3cc(Cl)ccc3Cl)nc21" ; retrieve measured TGI. 18.5 µM

Query: TGI; subject: "Cc1cc2occ(S(=O)(=O)NC(=O)Nc3ccc(Cl)cc3)c(=O)c2c(=O)o1" > 100 µM

// TGI lookup, key: "Cc1ccc(-n2cc(-c3ccc(Cl)cc3)c3c(=N)n(N)cnc32)cc1" 19.4 µM

Look at this compound and give its reported TGI. "CN(C)C(=O)Oc1ccc(C(=S)Nc2ccccc2)cc1" > 100 µM

Which value of TGI has been reported for "S=c1[nH]n2c(COc3cc(Cl)c(OCc4nnc5sc(=S)[nH]n45)cc3Cl)nnc2s1" in the records? > 100 µM

Given the entry COC(=O)C(=O)C(C(=O)C(=O)Nc1ccc(C)c(C)c1)c1nc2ccc([N+](=O)[O-])cc2[nH]c1=O (stereo unspecified) , report its measured TGI. > 100 µM

Given "Cc1cc2c(cc1Cl)Sc1n[nH]c(=O)n1S2(=O)=O" , state its recorded TGI. > 100 µM

Fill in the blank: the reported TGI of "S=c1[nH]nc(CCCCCCCCc2n[nH]c(=S)o2)o1" is ____. > 100 µM

Reported TGI, compound CC(C)(CN1CCCCC1)C(=O)CC(SCCS(=O)(=O)O)c1ccc(Cl)cc1 (stereo unspecified) : ____ 18.1 µM

Which TGI value belongs to "C[n+]1c2ccccc2c(C(=O)Nc2ccc(S(=O)(=O)Nc3ncccn3)cc2)c2ccccc21" ? > 100 µM

Query (compound): COc1ccc(OCC(O)CN2CCN(c3ccc(Cl)cc3)CC2)cc1 (stereo unspecified) ; field requested: TGI > 100 µM

The reported measurements were obtained from PubChem BioAssay (NCI).
